Just for reference, patent US20220064138A1 is where these values come from.

// reported IC50 per item
- Test system: human liver cancer HepG2 cells
- ASSAY OVERVIEW: Cell proliferation assay (CCK-8)
- Type: cell-based
- APPLIED CONDITIONS: HepG2, 72 h

Examples with their reported IC50 follow.
[[record]]
compound = "Cc1ccc(/C=C/C(=O)O[C@@H]2/C=C/C(=O)O[C@@H](C)CCC/C=C/[C@@H]3C[C@H](O)C[C@H]32)cc1"
test_value = "100 to 1000 nM"

[[record]]
compound = "C[C@H]1CCC/C=C/[C@@H]2C[C@H](OC(=O)/C=C/c3cccc(Cl)c3)C[C@H]2[C@H](OC(=O)/C=C/c2cccc(Cl)c2)/C=C/C(=O)O1"
test_value = "1000 to 10000 nM"

[[record]]
compound = "Cc1ccc(/C=C/C(=O)O[C@@H]2C[C@H]3[C@H](O)/C=C/C(=O)O[C@@H](C)CCC/C=C/[C@@H]3C2)cc1"
test_value = "1000 to 10000 nM"

[[record]]
compound = "C[C@H]1CCC/C=C/[C@@H]2C[C@H](O)C[C@H]2[C@H](OC(=O)/C=C/c2ccc(N(C)C)cc2)/C=C/C(=O)O1 [Compound 10b]"
test_value = "100 to 1000 nM"


Here is another compound to look at.
Please fill in: IC50 reported for "Cc1cccc(/C=C/C(=O)O[C@@H]2C[C@H]3[C@H](O)/C=C/C(=O)O[C@@H](C)CCC/C=C/[C@@H]3C2)c1" = 1000 to 10000 nM

====

- Tested on: Kunming breed mice
- ASSAY OVERVIEW: Toxicity test after intraperitoneal administration to mice
- Format: in vivo
- APPLIED CONDITIONS: male, Kunming, mouse, in vivo, ip, 14 d
READOUT LABEL: Mental condition of the animals after administration

Examples with their reported Mental condition of the animals after administration follow.
[[record]]
compound = "C[C@H]1CCC/C=C/[C@@H]2C[C@H](OC(=O)/C=C/c3ccc(N(C)C)cc3)C[C@H]2[C@H](OC(=O)/C=C/c2ccc(N(C)C)cc2)/C=C/C(=O)O1 [Compound 10c]"
test_value = "good mental condition"

[[record]]
compound = "C[C@H]1CCC/C=C/[C@@H]2C[C@H](O)C[C@H]2[C@H](OC(=O)/C=C/c2cccc(F)c2)/C=C/C(=O)O1"
test_value = "good mental condition"

[[record]]
compound = "C[C@H]1CCC/C=C/[C@@H]2C[C@H](OC(=O)/C=C/c3cccnc3)C[C@H]2[C@H](OC(=O)/C=C/c2cccnc2)/C=C/C(=O)O1 [Compound 16c]"
test_value = "good mental condition"

[[record]]
compound = "C[C@H]1CCC/C=C/[C@@H]2C[C@H](OC(=O)/C=C/c3ccc(N(C)C)cc3)C[C@H]2[C@H](O)/C=C/C(=O)O1 [Compound 10a]"
test_value = "good mental condition"

[[record]]
compound = "C[C@H]1CCC/C=C/[C@@H]2C[C@H](OC(=O)/C=C/c3cccc(F)c3)C[C@H]2[C@H](O)/C=C/C(=O)O1"
test_value = "good mental condition"


Please fill in: Mental condition of the animals after administration reported for C[C@H]1CCC/C=C/[C@@H]2C[C@H](O)C[C@H]2[C@H](OC(=O)/C=C/c2cccnc2)/C=C/C(=O)O1 [Compound 16b] = good mental condition

Please fill in: Mental condition of the animals after administration reported for C[C@H]1CCC/C=C/[C@@H]2C[C@H](OC(=O)/C=C/c3cccnc3)C[C@H]2[C@H](O)/C=C/C(=O)O1 [Compound 16a] = good mental condition

Please fill in: Mental condition of the animals after administration reported for C[C@H]1CCC/C=C/[C@@H]2C[C@H](O)C[C@H]2[C@H](OC(=O)/C=C/c2ccc(N(C)C)cc2)/C=C/C(=O)O1 [Compound 10b] = good mental condition

Please fill in: Mental condition of the animals after administration reported for "C[C@H]1CCC/C=C/[C@@H]2C[C@H](OC(=O)/C=C/c3cccc(F)c3)C[C@H]2[C@H](OC(=O)/C=C/c2cccc(F)c2)/C=C/C(=O)O1" = good mental condition

====

- Tested on: human breast cancer MCF7 cells
- ASSAY OVERVIEW: Cell proliferation assay (CCK-8)
- Format: cell-based
- APPLIED CONDITIONS: MCF7, 72 h
pIC50: −log10 of the molar value.
READOUT LABEL: pIC50

[[record]]
compound = "C[C@H]1CCC/C=C/[C@@H]2C[C@H](OC(=O)/C=C/c3ccc(N(C)C)cc3)C[C@H]2[C@H](OC(=O)/C=C/c2ccc(N(C)C)cc2)/C=C/C(=O)O1 [Compound 10c]"
readout_label = "pIC50"
test_value = "5.00 to 6.00"

[[record]]
compound = "C[C@H]1CCC/C=C/[C@@H]2C[C@H](OC(=O)/C=C/c3cccc(Cl)c3)C[C@H]2[C@H](O)/C=C/C(=O)O1"
readout_label = "pIC50"
test_value = "6.00 to 7.00"


Please fill in: pIC50 reported for "C[C@H]1CCC/C=C/[C@@H]2C[C@H](O)C[C@H]2[C@H](OC(=O)/C=C/c2ccccc2F)/C=C/C(=O)O1" = 6.00 to 7.00

====

// reported IC50 per item
- Test system: human liver cancer HepG2 cells
- ASSAY OVERVIEW: Cell proliferation assay (CCK-8)
- Assay type: cell-based
- APPLIED CONDITIONS: HepG2, 72 h
- Description: CCK-8 method: The CCK-8 method is a highly sensitive, non-radioactive colorimetric assay for the determination of the number of viable cells in cell proliferation or cytotoxicity assays. […] Cells in logarithmic growth phase were inoculated in 96-well plates with 5000 cells/well respectively, and after 24 h of incubation, samples were added (final concentrations as shown in the table), and biplicate wells were set up for each sample. […] The OD value at 450 nm was measured on an plate reader. […]

[[record]]
compound = "C[C@H]1CCC/C=C/[C@@H]2C[C@H](OC(=O)/C=C/c3cnc4ccccc4c3)C[C@H]2[C@H](OC(=O)/C=C/c2cnc3ccccc3c2)/C=C/C(=O)O1 [Compound 17c]"
assay_system = "human liver cancer HepG2 cells"
readout_label = "IC50"
test_value = "100 to 1000 nM"

[[record]]
compound = "C[C@H]1CCC/C=C/[C@@H]2C[C@H](O)C[C@H]2[C@H](OC(=O)/C=C/c2ccc(C(F)(F)F)cc2)/C=C/C(=O)O1 [Compound 13b]"
assay_system = "human liver cancer HepG2 cells"
readout_label = "IC50"
test_value = "100 to 1000 nM"


Here is another compound to look at.
Please fill in: IC50 reported for C[C@H]1CCC/C=C/[C@@H]2C[C@H](O)C[C@H]2[C@H](OC(=O)/C=C/c2ccncc2)/C=C/C(=O)O1 [Compound 14b] = < 100 nM

====

- Tested on: human breast cancer MCF7 cells
- ASSAY OVERVIEW: Cell proliferation assay (CCK-8)
- Type: cell-based
- APPLIED CONDITIONS: MCF7, 72 h
pIC50: −log10 of the molar value.
// reported pIC50 per item

[[record]]
compound = "C[C@H]1CCC/C=C/[C@@H]2C[C@H](OC(=O)/C=C/c3ccc(N(C)C)cc3)C[C@H]2[C@H](O)/C=C/C(=O)O1 [Compound 10a]"
readout_label = "pIC50"
test_value = "6.00 to 7.00"

[[record]]
compound = "C[C@H]1CCC/C=C/[C@@H]2C[C@H](OC(=O)/C=C/c3cccnc3)C[C@H]2[C@H](O)/C=C/C(=O)O1 [Compound 16a]"
readout_label = "pIC50"
test_value = "6.00 to 7.00"


Here is another compound to look at.
Measured pIC50 for this entry C[C@H]1CCC/C=C/[C@@H]2C[C@H](OC(=O)/C=C/c3ccccc3Br)C[C@H]2[C@H](O)/C=C/C(=O)O1 [Compound 4a, 7-O-(2-bromocinnamic acid)acyl BFA] on human breast cancer MCF7 cells: 6.00 to 7.00

====

- ASSAY OVERVIEW: Solubility test (shaking 24 h at 37° C., HPLC)
- APPLIED CONDITIONS: 5% DMSO + 95% H2O
READOUT LABEL: solubility at 24 h (µg/mL)
The reply should contain only the number, in µg/mL.

Please fill in: solubility at 24 h reported for C[C@H]1CCC/C=C/[C@@H]2C[C@H](O)C[C@H]2[C@H](OC(=O)/C=C/c2ccc(N(C)C)cc2)/C=C/C(=O)O1 [Compound 10b] = 720

Please fill in: solubility at 24 h reported for C[C@H]1CCC/C=C/[C@@H]2C[C@H](O)C[C@H]2[C@H](OC(=O)/C=C/c2cccc(F)c2)/C=C/C(=O)O1 [Compound 1b, 4-O-(3-fluorocinnamic acid)acyl BFA] = 320

Please fill in: solubility at 24 h reported for C[C@H]1CCC/C=C/[C@@H]2C[C@H](OC(=O)/C=C/c3cccc(F)c3)C[C@H]2[C@H](O)/C=C/C(=O)O1 [Compound 1a, 7-O-(3-fluorocinnamic acid)acyl BFA] = 330

Please fill in: solubility at 24 h reported for C[C@H]1CCC/C=C/[C@@H]2C[C@H](OC(=O)/C=C/c3cccc(F)c3)C[C@H]2[C@H](OC(=O)/C=C/c2cccc(F)c2)/C=C/C(=O)O1 [Compound 1c, 4,7-O-bis(3-fluorocinnamic acid)acyl BFA] = 200

Please fill in: solubility at 24 h reported for C[C@H]1CCC/C=C/[C@@H]2C[C@H](OC(=O)/C=C/c3ccc(N(C)C)cc3)C[C@H]2[C@H](O)/C=C/C(=O)O1 [Compound 10a] = 750

Please fill in: solubility at 24 h reported for C[C@H]1CCC/C=C/[C@@H]2C[C@H](OC(=O)/C=C/c3ccc(N(C)C)cc3)C[C@H]2[C@H](OC(=O)/C=C/c2ccc(N(C)C)cc2)/C=C/C(=O)O1 [Compound 10c] = 440
